Where these numbers come from: patent US10611740B2

Exercise: for every item that follows, state its recorded pEC50.
- Assayed target: Gal4-RORγ-LBD (Homo sapiens, UniProt P51449)
- Construct: expressed in transfected cells; host or cells: HEK-293 cells (pcDNA3.1neo plasmid)
- Experiment summary: Gal4-RORγ Luciferase Reporter Assay in HEK-293T Cells
- Type: cell-based
- Condition description: HEK-293 cells, luciferase reporter, with 2 μM ursolic acid
pEC50: −log10 of the molar value.

# lookup: pEC50 of CC(C)(CC[C@H]1CN(S(=O)(=O)c2cccc(C(F)(F)F)c2)c2cc(-c3cccc(C(F)(F)F)n3)ccc2O1)C(=O)O [Compound 32P]
> 6.30

Another: O=C(O)C1CCN(C(=O)CC[C@H]2CN(S(=O)(=O)c3cccc(C(F)(F)F)c3)c3cc(-c4cccc(F)c4F)ccc3O2)CC1 [Compound 23P]
> 6.30

Another: NS(=O)(=O)CCC(=O)NC[C@H]1CN(S(=O)(=O)c2cccc(C(F)(F)F)c2)c2cc(-c3cccc(C(F)(F)F)n3)ccc2O1 [Compound 30BG]
5.30 to 6.30

Another: C[C@H](O)C(=O)NC[C@H]1CN(S(=O)(=O)c2cccc(C(F)(F)F)c2)c2cc(-c3cc(F)ccc3F)ccc2O1 [Compound 30AE]
> 6.30

Another: CC(C)(O)C(=O)NCC[C@H]1CN(S(=O)(=O)c2cccc(C(F)(F)F)c2)c2cc(-c3cccc(C(F)(F)F)n3)ccc2O1 [Compound 30B]
> 6.30

Another: O=C(O)CC[C@H]1CN(S(=O)(=O)c2cccc(C(F)(F)F)c2)c2cc(-c3cccc(C(F)(F)F)n3)cc(F)c2O1 [Compound 22A]
> 6.30

Another: COc1cc(F)c(F)c(-c2ccc3c(c2)N(S(=O)(=O)c2cccc(C(F)(F)F)c2)C[C@H](CCC(=O)O)O3)c1 [Compound 4AR]
> 6.30

Another: O=C(NC[C@H]1CN(S(=O)(=O)c2cccc(C(F)(F)F)c2)c2cc(-c3cc(F)ccc3F)ccc2O1)C1CCC1 [Compound 30BB]
> 6.30

Another: O=C(O)CC[C@H]1CN(S(=O)(=O)c2cccc(C(F)(F)F)c2)c2cc(-c3cc(F)cc(Cl)c3F)ccc2O1 [Compound 4AY]
> 6.30

Another: CN(CCC(=O)O)C(=O)NC[C@H]1CN(S(=O)(=O)c2cccc(C(F)(F)F)c2)c2cc(-c3cc(F)ccc3F)ccc2O1 [Compound 23R]
5.30 to 6.30

Another: Cn1cnc(-c2ccc3c(c2)N(S(=O)(=O)c2cccc(C(F)(F)F)c2)C[C@H](CCC(=O)O)O3)n1 [Compound 4M]
< 5.00

Another: COc1cc(S(=O)(=O)N2C[C@H](CCNC(=O)C(C)(C)O)Oc3ccc(-c4cccc(C(F)(F)F)n4)cc32)ccc1F [Compound 30O]
> 6.30

Another: CCn1cc(S(=O)(=O)N2C[C@H](CCC(=O)O)Oc3ccc(-c4cccc(Cl)c4)cc32)c(Cl)n1 [Compound 6C]
5.30 to 6.30

###

- Assayed target: Gal4-RORγ-LBD (Homo sapiens, UniProt P51449)
- Construct: expressed in transfected cells; host or cells: HEK-293 cells (pcDNA3.1neo plasmid)
- Experiment summary: Gal4-RORγ Luciferase Reporter Assay in HEK-293T Cells
- Format: cell-based
- Condition description: HEK-293 cells, luciferase reporter, with 2 μM ursolic acid
Exercise: for every item that follows, state its recorded EC50.

# lookup: EC50 of CC(C)(O)C(=O)NC[C@H]1CN(S(=O)(=O)c2cccc(OC(F)F)c2)c2cc(-c3cc(F)ccc3F)ccc2O1 [Compound 30R]
< 500 nM

Another: COc1cc(F)cc(-c2ccc3c(c2)N(S(=O)(=O)c2cccc(C(F)(F)F)c2)C[C@H](CCC(=O)O)O3)c1F [Compound 4AZ]
< 500 nM

Another: COc1cc(OC)cc(-c2ccc3c(c2)N(S(=O)(=O)c2cccc(C(F)(F)F)c2)C[C@H](CC(C)(C)C(=O)O)O3)c1 [Compound 32Q]
< 500 nM

###

- Assayed target: Gal4-RORγ-LBD (Homo sapiens, UniProt P51449)
- Construct: expressed in transfected cells; host or cells: HEK-293 cells (pcDNA3.1neo plasmid)
- Sequence (P51449 269-508 limits assumed): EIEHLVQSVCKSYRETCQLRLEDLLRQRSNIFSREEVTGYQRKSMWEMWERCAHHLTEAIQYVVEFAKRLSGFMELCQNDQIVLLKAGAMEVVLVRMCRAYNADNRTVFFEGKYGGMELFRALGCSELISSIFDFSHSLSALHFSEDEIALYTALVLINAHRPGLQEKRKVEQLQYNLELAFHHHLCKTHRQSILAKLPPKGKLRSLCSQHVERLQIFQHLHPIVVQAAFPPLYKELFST
- Experiment summary: Gal4-RORγ Luciferase Reporter Assay in HEK-293T Cells
- Assay type: cell-based
- Condition description: HEK-293 cells, luciferase reporter, with 2 μM ursolic acid
- Description: Assay procedures and results are described below. […] The cells were harvested as described above, counted, and centrifuged to obtain the desired number of cells, then re-suspended in complete growth media at 0.75×10^6 cells/mL. […] The luciferase intensity was read on an Envision plate reader (Perkin Elmer). […] The Max Response is the upper plateau in the signal as determined by line-fit using a 4-parameter logistic model in PRISM (GraphPad).
pEC50: −log10 of the molar value.
Exercise: for every item that follows, state its recorded pEC50.

# lookup: pEC50 of O=C(NC[C@H]1CN(S(=O)(=O)c2cccc(C(F)(F)F)c2)c2cc(-c3cc(F)ccc3F)ccc2O1)c1cocn1 [Compound 30AJ]
> 6.30

Another: CC(C)(C[C@H]1CN(S(=O)(=O)c2cccc(C(F)(F)F)c2)c2cc(-c3cc(Cl)cc(OC(F)F)c3)ccc2O1)C(=O)O [Compound 32R]
> 6.30

Another: C[C@](O)(C(=O)NC[C@H]1CN(S(=O)(=O)c2cccc(C(F)(F)F)c2)c2cc(-c3cc(F)ccc3F)ccc2O1)C(F)(F)F [Compound 30W]
> 6.30

Another: O=C(O)CC[C@H]1CN(S(=O)(=O)c2cccc(C(F)(F)F)c2)c2cc(-c3ncc(C(F)(F)F)s3)ccc2O1 [Compound 4H]
5.30 to 6.30

Another: O=C(O)CC[C@H]1CN(S(=O)(=O)c2cccc(C(F)(F)F)c2)c2cc(-c3cccn4ccnc34)ccc2O1 [Compound 4J]
5.30 to 6.30

Another: CC(C)c1ccc(-c2ccc3c(c2)N(S(=O)(=O)c2cccc(C(F)(F)F)c2)C[C@H](CCC(=O)O)O3)cc1 [Compound 2Z]
< 5.00

###

- Assayed target: Gal4-RORγ-LBD (Homo sapiens, UniProt P51449)
- Construct: expressed in transfected cells; host or cells: HEK-293 cells (pcDNA3.1neo plasmid)
- Sequence (P51449 269-508 limits assumed): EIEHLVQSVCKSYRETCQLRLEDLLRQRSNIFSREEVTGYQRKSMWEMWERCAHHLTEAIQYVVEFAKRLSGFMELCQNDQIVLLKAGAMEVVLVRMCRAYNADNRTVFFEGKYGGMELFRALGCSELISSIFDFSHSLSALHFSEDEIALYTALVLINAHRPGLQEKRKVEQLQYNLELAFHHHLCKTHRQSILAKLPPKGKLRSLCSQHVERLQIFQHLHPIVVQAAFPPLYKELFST
- Experiment summary: Gal4-RORγ Luciferase Reporter Assay in HEK-293T Cells
- Assay type: cell-based
- Condition description: HEK-293 cells, luciferase reporter, with 2 μM ursolic acid
pEC50: −log10 of the molar value.
Measured property: pEC50

# lookup: pEC50 of O=C(O)CC[C@H]1CN(S(=O)(=O)c2cccc(C(F)(F)F)c2)c2cc(-c3ccnc(C(F)(F)F)c3)ccc2O1
< 5.00

Another: C[C@H](C[C@H]1CN(S(=O)(=O)c2cccc(C(F)(F)F)c2)c2cc(-c3cc(F)cc(F)c3Cl)ccc2O1)C(=O)O [Compound 46B]
> 6.30

Another: O=C(NC[C@H]1CN(S(=O)(=O)c2cccc(C(F)(F)F)c2)c2cc(-c3cc(F)ccc3F)ccc2O1)C1CC1 [Compound 30Y]
> 6.30

Another: O=C(O)CC[C@H]1CN(S(=O)(=O)c2cccc(C(F)(F)F)c2)c2cc(-c3cc(C(F)(F)F)cc(F)c3F)ccc2O1
> 6.30

Another: O=C(O)CC[C@H]1CN(S(=O)(=O)c2cccc(C(F)(F)F)c2)c2cc(-c3ccccc3Cl)ccc2O1
> 6.30

Another: CC(C)(C[C@H]1CN(S(=O)(=O)c2cccc(C(F)(F)F)c2)c2cc(-c3cccc(F)c3Cl)ccc2O1)C(=O)O [Compound 32H]
5.30 to 6.30

Another: Cc1noc(C)c1-c1ccc2c(c1)N(S(=O)(=O)c1cccc(C(F)(F)F)c1)C[C@H](CCC(=O)O)O2
< 5.00
